PROTOCOL_DETAILS: NCI Yeast Anticancer Drug Screen. Data for the sgs1 mgt1 strain (AID 161);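 further: 0% = growth of cultures given vehicle only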
CONDITIONS: S. cerevisiae sgs1 mgt1 strain, at 50.0 µM, hits give high values
The panel holds about 79,000 compounds, 15% with a hit somewhere; the sample as a whole holds those more often.
EXPERIMENTAL_READOUT: growth inhibition (%)
Only the number, expressed in %, is required.

Query: Endpoint output: growth inhibition of CS(=O)(=O)OC1CC/C=C\CCC1OS(C)(=O)=O (stereo not given) . Value?
Result: 12.3

Query: Param item: CCN(CC)C(=O)COc1ccc(Cl)cc1
Result: -5.55

Query: Param item: NCc1ccccc1[N+](=O)[O-]
Result: 3.5

Query: Param item: CNC(=O)NCCc1c[nH]c2ccccc12
Result: -49.1

Query: Param item: COc1cccc(CNc2ncnc3nc[nH]c23)c1
Result: 14.7

All values here come from PubChem BioAssay (NCI).
